Attribution: ChEMBL document CHEMBL1687930

- Tested on: LLC-PK1
- protocol_summary: Ratio of GI50 for pig L-MDR1 cells overexpressing human P-glycoprotein to GI50 for pig LLC-PK1 cells
- Type: functional, Sus scrofa
reported_endpoint: RatioGI50
Response field accepts a number only; no unit should be typed.

> print(dat)
                               entry.smiles  reported.endpoint  value.observed
1  N[C@@H](CSC(c1ccccc1)(c1ccccc1)c1ccc(C(F)(F)F)cc1)C(=O)O          RatioGI50               8

Item N[C@@H](CSC(c1ccccc1)(c1ccccc1)c1ccc2ccccc2c1)C(=O)O has what recorded RatioGI50?
38.6

One more molecule: CSc1ccc(C(SC[C@H](N)C(=O)O)(c2ccccc2)c2ccccc2)cc1
35.1

One more molecule: CCc1ccc(C(SC[C@H](N)C(=O)O)(c2ccccc2)c2ccccc2)cc1
31.8

###

- protocol_summary: Growth inhibition of dog MDCK2 cells
- Assay type: functional
- assay_context: Canis lupus familiaris, MDCK-II
Labelling: GI50 reported below 300 nM becomes YES; at or above becomes NO.

entry_smiles	assigned_category
N[C@@H](CSC(c1ccccc1)(c1ccccc1)c1ccc(C(F)(F)F)cc1)C(=O)O	NO
N[C@@H](CSC(c1ccccc1)(c1ccccc1)c1ccc2ccccc2c1)C(=O)O	YES
Cc1ccc(C(SC[C@H](N)C(=O)O)(c2ccccc2)c2ccccc2)cc1	YES
N[C@@H](CSC(c1ccccc1)(c1ccccc1)c1ccc(-c2ccccc2)cc1)C(=O)O	NO
CC(C)c1ccc(C(SC[C@H](N)C(=O)O)(c2ccccc2)c2ccccc2)cc1	NO

Is 300 nM strictly greater than the compound's reported GI50? compound: CSc1ccc(C(SC[C@H](N)C(=O)O)(c2ccccc2)c2ccccc2)cc1
YES

One more compound: CC(C)(C)c1ccc(C(SC[C@H](N)C(=O)O)(c2ccccc2)c2ccccc2)cc1
NO

One more compound: N[C@@H](CSC(c1ccccc1)(c1ccccc1)c1ccc(Br)cc1)C(=O)O
YES

One more compound: N[C@@H](CSC(c1ccccc1)(c1ccccc1)c1ccc(Cl)cc1)C(=O)O
YES

One more compound: CCc1ccc(C(SC[C@H](N)C(=O)O)(c2ccccc2)c2ccccc2)cc1
YES

One more compound: NCCSC(c1ccccc1)(c1ccccc1)c1ccccc1
NO

One more compound: CCCc1ccc(C(SC[C@H](N)C(=O)O)(c2ccccc2)c2ccccc2)cc1
NO

One more compound: N[C@@H](CSC(c1ccccc1)(c1ccccc1)c1ccc(I)cc1)C(=O)O
YES

One more compound: N[C@@H](CSC(c1ccccc1)(c1ccccc1)c1ccc(C2CCCCC2)cc1)C(=O)O
NO

###

- target: Kinesin-like protein KIF11 (Homo sapiens, UniProt P52732)
- Sequence (P52732 whole entry): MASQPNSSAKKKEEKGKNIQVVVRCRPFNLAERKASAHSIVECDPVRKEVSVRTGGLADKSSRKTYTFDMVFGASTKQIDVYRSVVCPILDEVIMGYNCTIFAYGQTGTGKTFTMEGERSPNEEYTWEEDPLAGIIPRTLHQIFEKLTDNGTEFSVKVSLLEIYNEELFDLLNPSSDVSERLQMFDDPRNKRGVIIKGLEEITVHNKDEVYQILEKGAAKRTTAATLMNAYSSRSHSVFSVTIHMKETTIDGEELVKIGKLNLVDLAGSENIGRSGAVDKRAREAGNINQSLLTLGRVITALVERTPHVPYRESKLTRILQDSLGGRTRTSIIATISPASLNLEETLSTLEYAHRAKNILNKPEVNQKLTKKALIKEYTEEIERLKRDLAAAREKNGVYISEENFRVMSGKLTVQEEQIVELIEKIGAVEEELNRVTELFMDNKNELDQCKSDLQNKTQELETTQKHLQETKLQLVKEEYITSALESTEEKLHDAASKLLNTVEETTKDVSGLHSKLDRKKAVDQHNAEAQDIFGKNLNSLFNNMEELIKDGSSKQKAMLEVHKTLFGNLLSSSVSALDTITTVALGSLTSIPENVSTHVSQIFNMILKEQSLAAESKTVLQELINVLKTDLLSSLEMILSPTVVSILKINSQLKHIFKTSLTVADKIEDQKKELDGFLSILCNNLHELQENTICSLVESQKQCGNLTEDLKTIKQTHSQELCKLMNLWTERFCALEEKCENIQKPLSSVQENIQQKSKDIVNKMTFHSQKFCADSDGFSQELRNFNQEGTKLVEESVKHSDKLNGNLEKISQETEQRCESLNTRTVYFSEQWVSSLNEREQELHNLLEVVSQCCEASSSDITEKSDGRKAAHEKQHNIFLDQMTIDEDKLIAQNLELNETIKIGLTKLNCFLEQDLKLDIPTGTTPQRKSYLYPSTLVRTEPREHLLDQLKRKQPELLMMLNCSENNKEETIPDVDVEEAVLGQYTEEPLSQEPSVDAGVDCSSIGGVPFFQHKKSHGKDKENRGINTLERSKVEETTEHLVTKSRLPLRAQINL
- protocol_summary: Inhibition of untagged human Eg5 microtubule-stimulated ATPase activity
pIC50: −log10 of the molar value.
Dear colleague, classification is by pIC50, with ranges listed here: low: < 6; intermediate: ≥ 6 and < 7; high: ≥ 7

Worked examples, 5 compounds total:
> print(dat)
                                   compound  assigned.category
1  N[C@@H](CSC(c1ccccc1)(c1ccccc1)c1ccc(C2CCCCC2)cc1)C(=O)O                low
2  CCc1ccc(C(SC[C@H](N)C(=O)O)(c2ccccc2)c2ccccc2)cc1               high
3  CSc1ccc(C(SC[C@H](N)C(=O)O)(c2ccccc2)c2ccccc2)cc1               high
4  N[C@@H](CSC(c1ccccc1)(c1ccccc1)c1ccc(-c2ccccc2)cc1)C(=O)O                low
5  N[C@@H](CSC(c1ccccc1)(c1ccccc1)c1ccc(Br)cc1)C(=O)O               high

Just checking, what class would you give N[C@@H](CSC(c1ccccc1)(c1ccccc1)c1ccc(I)cc1)C(=O)O here?
high

One more compound: NCCSC(c1ccccc1)(c1ccccc1)c1ccccc1
intermediate

One more compound: N[C@@H](CSC(c1ccccc1)(c1ccccc1)c1ccc2ccccc2c1)C(=O)O
high

One more compound: N[C@@H](CSC(c1ccccc1)(c1ccccc1)c1ccc(Cl)cc1)C(=O)O
high

One more compound: CCC(CC)C(SC[C@H](N)C(=O)O)(c1ccccc1)c1ccccc1
low

One more compound: CCCCC(SC[C@H](N)C(=O)O)(c1ccccc1)c1ccccc1
intermediate

###

- System: LLC-PK1
- protocol_summary: Ratio of GI50 for pig L-MDR1 cells overexpressing human P-glycoprotein to GI50 for pig LLC-PK1 cells
- Format: functional, Sus scrofa
Labelling: RatioGI50 reported below 4 becomes Condition met; at or above becomes Condition not met.

Worked examples, 6 compounds total:
entry_smiles	assigned_category
CC(C)c1ccc(C(SC[C@H](N)C(=O)O)(c2ccccc2)c2ccccc2)cc1	Condition not met
NCCSC(c1ccccc1)(c1ccccc1)c1ccccc1	Condition met
Cc1ccc(C(SC[C@H](N)C(=O)O)(c2ccccc2)c2ccccc2)cc1	Condition met
N[C@@H](CSC(c1ccccc1)(c1ccccc1)c1ccc(Cl)cc1)C(=O)O	Condition met
N[C@@H](CSC(c1ccccc1)(c1ccccc1)c1ccc(Br)cc1)C(=O)O	Condition met
CC[C@]1(O)C[C@H]2CN(CCc3c([nH]c4ccccc34)[C@@](C(=O)OC)(c3cc4c(cc3OC)N(C=O)[C@H]3[C@@](O)(C(=O)OC)[C@H](OC(C)=O)[C@]5(CC)C=CCN6CC[C@]43[C@@H]65)C2)C1	Condition not met

Is 4 strictly greater than the compound's reported RatioGI50? compound: CCCc1ccc(C(SC[C@H](N)C(=O)O)(c2ccccc2)c2ccccc2)cc1
Condition not met

One more compound: N[C@@H](CSC(c1ccccc1)(c1ccccc1)c1ccc(I)cc1)C(=O)O
Condition not met

###

Reported GI50 is given for each of the following compounds.
- protocol_summary: Growth inhibition of dog MDCK2-MDR1 cells overexpressing human P-glycoprotein in presence of P-glycoprotein inhibitor LY335979
- Type: functional
- assay_context: Canis lupus familiaris, MDCK-II
Lab book: enter the figure in µM, no units written.

Worked examples follow.
compound	GI50 (µM)
CC(C)c1ccc(C(SC[C@H](N)C(=O)O)(c2ccccc2)c2ccccc2)cc1	0.88
CSc1ccc(C(SC[C@H](N)C(=O)O)(c2ccccc2)c2ccccc2)cc1	0.21
N[C@@H](CSC(c1ccccc1)(c1ccccc1)c1ccc(C2CCCCC2)cc1)C(=O)O	17.9
NCCSC(c1ccccc1)(c1ccccc1)c1ccccc1	0.61
Cc1ccc(C(SC[C@H](N)C(=O)O)(c2ccccc2)c2ccccc2)cc1	0.12

Consider the record given below.
Item N[C@@H](CSC(c1ccccc1)(c1ccccc1)c1ccc(I)cc1)C(=O)O has what recorded GI50?
0.18

###

- target: UniProt:P52732
Labelling: Ki reported below 0.3 µM becomes true; at or above becomes false.

Worked examples, 5 molecules total:
> print(dat)
                               entry.smiles  assigned.category
1  Cc1ccc(C(SC[C@H](N)C(=O)O)(c2ccccc2)c2ccccc2)cc1               true
2  N[C@@H](CSC(c1ccccc1)(c1ccccc1)c1ccc2ccccc2c1)C(=O)O               true
3  CC(C)c1ccc(C(SC[C@H](N)C(=O)O)(c2ccccc2)c2ccccc2)cc1               true
4  CC(C)C(SC[C@H](N)C(=O)O)(c1ccccc1)c1ccccc1               true
5         NCCSC(c1ccccc1)(c1ccccc1)c1ccccc1               true

Is 0.3 µM strictly greater than the molecule's reported Ki? molecule: N[C@@H](CSC(c1ccccc1)(c1ccccc1)c1ccc(C2CCCCC2)cc1)C(=O)O
false

One more molecule: N[C@@H](CSC(c1ccccc1)(c1ccccc1)c1ccc(I)cc1)C(=O)O
true

One more molecule: CC(C)(C)c1ccc(C(SC[C@H](N)C(=O)O)(c2ccccc2)c2ccccc2)cc1
false

One more molecule: N[C@@H](CSC(c1ccccc1)(c1ccccc1)c1ccc(Br)cc1)C(=O)O
true

###

- protocol_summary: Growth inhibition of dog MDCK2 cells
- Format: functional
- assay_context: Canis lupus familiaris, MDCK-II
reported_endpoint: GI50 (nM)
Lab book: enter the figure in nM, no units written.

Worked examples follow.
molecule	GI50, nM
N[C@@H](CSC(c1ccccc1)(c1ccccc1)c1ccccc1)C(=O)O [S-TRITYL-L-CYSTEINE]	860
COc1ccc(C(SC[C@H](N)C(=O)O)(c2ccccc2)c2ccccc2)cc1	220
N[C@H](CSC(c1ccccc1)(c1ccccc1)c1ccccc1)C(=O)O	610

Consider the record given below.
Item CC[C@]1(O)C[C@H]2CN(CCc3c([nH]c4ccccc34)[C@@](C(=O)OC)(c3cc4c(cc3OC)N(C=O)[C@H]3[C@@](O)(C(=O)OC)[C@H](OC(C)=O)[C@]5(CC)C=CCN6CC[C@]43[C@@H]65)C2)C1 [VINCRISTINE] has what recorded GI50?
2650
